Listing of IC50 toward Kallikrein-5 (Homo sapiens, UniProt Q9Y337), each taken from a published source.
Target: Kallikrein-5 (Homo sapiens, UniProt Q9Y337)
Sequence (Q9Y337 whole entry): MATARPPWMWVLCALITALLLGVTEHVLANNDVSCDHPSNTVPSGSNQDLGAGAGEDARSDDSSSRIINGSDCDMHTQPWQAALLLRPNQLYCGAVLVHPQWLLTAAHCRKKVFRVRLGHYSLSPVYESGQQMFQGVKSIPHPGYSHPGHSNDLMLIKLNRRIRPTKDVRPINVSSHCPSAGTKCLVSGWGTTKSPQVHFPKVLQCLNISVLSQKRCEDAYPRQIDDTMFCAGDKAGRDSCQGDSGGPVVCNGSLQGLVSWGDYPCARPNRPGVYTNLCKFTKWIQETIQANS
Entry rule: numbers only, all in µM.

Below, 6 compounds whose answers are already recorded.
>  <Compound Structure>
COc1cc(/C=C(/C#N)c2nc3ccccc3[nH]2)ccc1OCC(=O)N1CCOCC1

>  <Reading Unit>
µM

>  <Experimental Value>
125

$$$$
>  <Compound Structure>
COC(=O)[C@@H](NC(=O)C[C@H](O)[C@H](Cc1ccccc1)NC(=O)OC(C)(C)C)C(C)C

>  <Reading Unit>
µM

>  <Experimental Value>
0.115

$$$$
>  <Compound Structure>
CCCCCCCCCCC/C(O)=C1/C(=O)[C@H](Cc2ccccc2)N(C(=O)OC(C)(C)C)C1=O

>  <Reading Unit>
µM

>  <Experimental Value>
3.6

$$$$
>  <Compound Structure>
COC(=O)[C@H](Cc1ccccc1)NC(=O)C[C@H](O)[C@H](Cc1ccccc1)NC(=O)OC(C)(C)C

>  <Reading Unit>
µM

>  <Experimental Value>
0.112

$$$$
>  <Compound Structure>
COc1ccc(NC(=O)/C(C#N)=C\c2ccc(O)c(OC)c2)cc1

>  <Reading Unit>
µM

>  <Experimental Value>
127

$$$$
>  <Compound Structure>
CCCCCCCCCCCCCCC/C(O)=C1/C(=O)[C@H](Cc2ccccc2)N(C(=O)OC(C)(C)C)C1=O

>  <Reading Unit>
µM

>  <Experimental Value>
12

$$$$

Returns the measured IC50 for the input compound. Input: COc1ccc(/C=C2/SC(=O)N(CNc3cc(F)ccc3C)C2=O)cc1OC
117

Fill in the blank: the reported IC50 of Cc1nn(-c2ccccc2)c(C)c1NC(=O)COC(=O)Cc1c(C)[nH]c2cc(C(=N)N)ccc12 is ____.
0.13
